- Assayed target: S. aureus 133 Translation
- Test protocol: S. aureus in vitro transcription-translation assay (firefly luciferase, S30 extract)
- Condition parameters: 50% inhibition of the translation of firefly luciferase
Recorded IC50 values for a group of compounds are listed next.
Experimental readout: IC50 (nM)

NC[C@H](O)C[C@@H]1NC(=O)[C@@H](N)Cc2cc(ccc2O)-c2ccc(O)c(c2)C[C@@H](C(=O)O)NC1=O [Biphenomycin B, biphenomycin B, reference compound] :: 1500
NCCC[C@H](N)CNC(=O)C[C@@H](N)CCCNC(=O)[C@H](CCCN)NC(=O)[C@@H]1Cc2cccc(c2)-c2ccc(O)c(c2)C[C@H](N)C(=O)N[C@@H](CCCN)C(=O)N1 :: 100
NCCC[C@H](N)CNC(=O)CNC(=O)[C@@H]1Cc2cccc(c2)-c2ccc(O)c(c2)C[C@H](N)C(=O)N[C@@H](C[C@@H](O)CN)C(=O)N1 :: 70
NCCC[C@H](NC(=O)[C@@H]1Cc2cccc(c2)-c2ccc(O)c(c2)C[C@H](N)C(=O)N[C@@H](C[C@@H](O)CN)C(=O)N1)C(=O)NCCN :: 70
CN1C(=O)[C@H](C[C@@H](O)CN)NC(=O)[C@@H](N)Cc2cc(ccc2O)-c2cccc(c2)C[C@H]1C(=O)NCCC(=O)NC[C@@H](N)CCCN :: 200
NCCC[C@H](N)CNC(=O)[C@H](CCCN)NC(=O)[C@@H]1Cc2cccc(c2)-c2ccc(O)c(c2)C[C@H](N)C(=O)N[C@@H](CCCN)C(=O)N1 :: 200
NCCC[C@H](N)CNC(=O)C[C@H](CCCN)NC(=O)[C@@H]1Cc2cccc(c2)-c2ccc(O)c(c2)C[C@H](N)C(=O)N[C@@H](CCCN)C(=O)N1 :: 100
NCCNC(=O)[C@@H](N)CCCNC(=O)[C@@H]1Cc2cccc(c2)-c2ccc(O)c(c2)C[C@H](N)C(=O)N[C@@H](C[C@@H](O)CN)C(=O)N1 :: 200

---

- Test system: S. aureus 133
- Test protocol: Minimum inhibitory concentration (MIC), S. aureus 133
- Type: cell-based, Staphylococcus aureus
- Condition parameters: Staphylococcus aureus, 133, read-out: MIC S. aureus 133
Experimental readout: MIC

NCCC[C@H](N)CNC(=O)CNC(=O)[C@@H]1Cc2cccc(c2)-c2ccc(O)c(c2)C[C@H](N)C(=O)N[C@@H](C[C@@H](O)CN)C(=O)N1 [Example 2] :: 1 µg/mL
NCCNC(=O)[C@@H](N)CCCNC(=O)[C@@H]1Cc2cccc(c2)-c2ccc(O)c(c2)C[C@H](N)C(=O)N[C@@H](C[C@@H](O)CN)C(=O)N1 [Example 5] :: 1 µg/mL
NCCC[C@H](N)CNC(=O)C[C@@H](N)CCCNC(=O)[C@H](CCCN)NC(=O)[C@@H]1Cc2cccc(c2)-c2ccc(O)c(c2)C[C@H](N)C(=O)N[C@@H](CCCN)C(=O)N1 [Example 15] :: 1 µg/mL
NCCC[C@H](NC(=O)[C@@H]1Cc2cccc(c2)-c2ccc(O)c(c2)C[C@H](N)C(=O)N[C@@H](CCCN)C(=O)N1)C(=O)NCCC[C@H](N)CC(=O)NCCN [Example 12] :: 1 µg/mL
